Tested on: primary human total T-cells
test-summary: T-cell activation, CD25 surface staining, Biological Example 2
Format: cell-based
study-conditions: anti-CD3 and anti-CD28 co-stimulation, 48 hours, 0.3 μM inhibitor, fold change over baseline
measured-metric: fold induction at 0.3 µM

>  <compound>
C[C@@H]1CN(Cc2cc(C(=O)Nc3cccc([C@]4(Cc5nncn5C)C[C@@H](C#N)C4)c3)nc(C3CC3)n2)CCC1(F)F [Compound 57]

>  <test-result>
1.24 to 1.39

$$$$
>  <compound>
CC1CCN(Cc2cc3c(c(C(F)(F)F)c2)CN(c2cccc([C@]4(Cc5nncn5C)C[C@@H](C#N)C4)c2)C3=O)CC(C)O1 (stereo partly drawn) [Compound 34]

>  <test-result>
≤ 1.24

$$$$

With those in mind, consider the next compound.
For the compound COCC1CCCCN(Cc2cc3c(c(C(F)(F)F)c2)CN(c2cccc([C@]4(Cc5nncn5C)C[C@@H](C#N)C4)c2)C3=O)C1 (stereo partly drawn) [Compound 45] , what fold induction at 0.3 µM is on record?
1.24 to 1.39

====

Tested on: primary human total T-cells
test-summary: T-cell activation, CD25 surface staining, Biological Example 2
Assay type: cell-based
study-conditions: anti-CD3 and anti-CD28 co-stimulation, 48 hours, 0.3 μM inhibitor, fold change over baseline
measured-metric: fold induction at 0.3 µM

Reference set (6 entries):
>  <compound>
Cc1cc(C(=O)Nc2cccc([C@]3(Cc4nncn4C)C[C@H](C#N)C3)c2)nc(C2CC2)n1

>  <target-entity>
primary human total T-cells

>  <fold induction at 0.3 µM>
≤ 1.24

$$$$
>  <compound>
Cn1cnnc1C[C@]1(c2cccc(N3Cc4c(cccc4C(F)(F)F)C3=O)c2)C[C@H](C#N)C1

>  <target-entity>
primary human total T-cells

>  <fold induction at 0.3 µM>
≤ 1.24

$$$$
>  <compound>
Cc1cc(C(=O)Nc2cccc([C@]3(Cc4nncn4C)C[C@@H](C#N)C3)c2)nc(C2CC2)n1

>  <target-entity>
primary human total T-cells

>  <fold induction at 0.3 µM>
1.24 to 1.39

$$$$
>  <compound>
Cn1cnnc1C[C@]1(c2cccc(N3Cc4c(cc(CN[C@@H]5CCC(F)(F)C5)cc4C(F)(F)F)C3=O)c2)C[C@H](C#N)C1

>  <target-entity>
primary human total T-cells

>  <fold induction at 0.3 µM>
> 1.39

$$$$
>  <compound>
C[C@H]1CCCN(Cc2cc3c(c(C4CC4)n2)CN(c2cccc([C@]4(Cc5nncn5C)C[C@@H](C#N)C4)c2)C3=O)C1

>  <target-entity>
primary human total T-cells

>  <fold induction at 0.3 µM>
1.24 to 1.39

$$$$
>  <compound>
Cn1cnnc1C[C@]1(c2cccc(N3Cc4c(cc(CN5CCCCC(CO)C5)cc4C(F)(F)F)C3=O)c2)C[C@H](C#N)C1 (stereo partly shown)

>  <target-entity>
primary human total T-cells

>  <fold induction at 0.3 µM>
> 1.39

$$$$

For the compound `Cn1cnnc1C[C@]1(c2cccc(N3Cc4c(cc(CN[C@H]5CCC(F)(F)C5)cc4C(F)(F)F)C3=O)c2)C[C@H](C#N)C1` , what fold induction at 0.3 µM is on record?
> 1.39

====

target-entity: Cbl-b (Homo sapiens (Human), UniProt Q13191)
Sequence (Q13191 36-427): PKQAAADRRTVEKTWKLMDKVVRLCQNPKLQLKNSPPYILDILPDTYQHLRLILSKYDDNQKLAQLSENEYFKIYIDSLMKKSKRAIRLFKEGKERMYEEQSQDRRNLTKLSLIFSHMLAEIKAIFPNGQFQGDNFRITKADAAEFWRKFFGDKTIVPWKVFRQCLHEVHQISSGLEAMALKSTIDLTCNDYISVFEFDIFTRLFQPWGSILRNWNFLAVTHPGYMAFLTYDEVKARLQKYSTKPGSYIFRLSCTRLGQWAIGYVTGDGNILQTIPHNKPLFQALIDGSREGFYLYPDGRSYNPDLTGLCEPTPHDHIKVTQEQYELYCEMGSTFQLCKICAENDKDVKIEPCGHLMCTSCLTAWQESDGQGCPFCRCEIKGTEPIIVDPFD
test-summary: Cbl-b displacement assay (Cbl-b inhibition assay), Biological Example 1
Assay type: binding
study-conditions: read-out: IC50 values in the Cbl-b inhibition assay of Biological Example 1
measured-metric: IC50

>  <compound>
C[C@@H]1CN(Cc2cc3c(c(C(F)(F)F)c2)CN(c2cccc([C@]4(Cc5nncn5C)C[C@@](C)(C#N)C4)c2)C3=O)CCO1

>  <IC50>
5 to 20 nM

$$$$
>  <compound>
Cn1cnnc1C[C@]1(c2cccc(N3Cc4c(cc(CN5CC6COC(C6)C5)cc4C(F)(F)F)C3=O)c2)C[C@H](C#N)C1 (stereo partly shown)

>  <IC50>
5 to 20 nM

$$$$
>  <compound>
Cn1cnnc1C[C@]1(c2cccc(N3Cc4c(cc(CNC5CCC(F)(F)C5)nc4C4CC4)C3=O)c2)C[C@H](C#N)C1 (stereo partly shown)

>  <IC50>
1 to 2 nM

$$$$

With those in mind, consider the next compound.
For the compound Cn1cnnc1C[C@]1(c2cccc(N3Cc4c(cc(CNC5CC6(C5)CC6(F)F)cc4C(F)(F)F)C3=O)c2)C[C@H](C#N)C1 (stereo partly shown) , what IC50 is on record?
1 to 2 nM

====

target-entity: UniProt Q13191
test-summary: Cbl-b displacement assay (Cbl-b inhibition assay), Biological Example 8
Type: binding
study-conditions: 0.125 nM Cbl-b final concentration (Low), Table 4; read-out: Cbl-b IC50 (Low)
The following compounds are listed with their measured IC50 values.

Reference set (5 entries):
>  <compound>
C[C@@H]1CN(Cc2cc3c(c(C(F)(F)F)c2)CN(c2cccc([C@]4(Cc5nncn5C)C[C@@H](C#N)C4)c2)C3=O)CCC1(F)F [Compound 11]

>  <IC50>
1 to 5 nM

$$$$
>  <compound>
Cn1cnnc1C[C@]1(c2cccc(N3Cc4c(cc(CN5CCC6(CC6)C5)cc4C(F)(F)F)C3=O)c2)C[C@H](C#N)C1 [Compound 4]

>  <IC50>
1 to 5 nM

$$$$
>  <compound>
Cn1cnnc1C[C@]1(c2cccc(N3Cc4c(cc(CN[C@H]5CCC(F)(F)C5)cc4C(F)(F)F)C3=O)c2)C[C@H](C#N)C1 [Compound 20]

>  <IC50>
< 1 nM

$$$$
>  <compound>
Cn1cnnc1C[C@]1(c2cccc(N3Cc4c(cc(CN[C@@H]5CCC(F)(F)C5)cc4C(F)(F)F)C3=O)c2)C[C@H](C#N)C1 [Compound 21]

>  <IC50>
< 1 nM

$$$$
>  <compound>
C[C@H]1CCCN(Cc2cc3c(c(C(F)(F)F)c2)CN(c2cccc([C@]4(Cc5nncn5C)C[C@@H](C#N)C4)c2)C3=O)C1 [Compound 19]

>  <IC50>
< 1 nM

$$$$

With those in mind, consider the next compound.
Write down the reported IC50 of C[C@@H]1CN(Cc2cc(C(=O)Nc3cccc([C@]4(Cc5nncn5C)C[C@@H](C#N)C4)c3)nc(C3CC3)c2)CCO1 [Compound 56] , test system: UniProt Q13191.
< 1 nM

====

System: primary human total T-cells
test-summary: T-cell activation, CD25 surface staining, Biological Example 2
Assay type: cell-based
study-conditions: anti-CD3 and anti-CD28 co-stimulation, 48 hours, 0.3 μM inhibitor, fold change over baseline
measured-metric: fold induction at 0.3 µM

>  <molecule>
C[C@@H]1CN(Cc2cc3c(c(C4CC4)n2)CN(c2cccc([C@]4(Cc5nncn5C)C[C@@H](C#N)C4)c2)C3=O)CCC1(F)F [Compound 42]

>  <fold induction at 0.3 µM>
≤ 1.24

$$$$

For the molecule Cn1cnnc1C[C@]1(c2cccc(N3Cc4c(cc(CN5CCOCC6(CC6)C5)cc4C(F)(F)F)C3=O)c2)C[C@H](C#N)C1 [Compound 30] , what fold induction at 0.3 µM is on record?
≤ 1.24

For the molecule COCC1COCCN(Cc2cc3c(c(C(F)(F)F)c2)CN(c2cccc([C@]4(Cc5nncn5C)C[C@@H](C#N)C4)c2)C3=O)C1 (stereo partly shown) [Compound 46] , what fold induction at 0.3 µM is on record?
> 1.39

For the molecule CCC1COCCN(Cc2cc3c(c(C(F)(F)F)c2)CN(c2cccc([C@]4(Cc5nncn5C)C[C@@H](C#N)C4)c2)C3=O)C1 (stereo partly shown) [Compound 43] , what fold induction at 0.3 µM is on record?
≤ 1.24

For the molecule CC1CCCCN(Cc2cc3c(c(C(F)(F)F)c2)CN(c2cccc([C@]4(Cc5nncn5C)C[C@@H](C#N)C4)c2)C3=O)C1 (stereo partly shown) [Compound 25] , what fold induction at 0.3 µM is on record?
1.24 to 1.39

For the molecule Cn1cnnc1C[C@]1(c2cccc(N3Cc4c(cc(CN5CCOCC(CO)C5)cc4C(F)(F)F)C3=O)c2)C[C@H](C#N)C1 (stereo partly shown) [Compound 44] , what fold induction at 0.3 µM is on record?
≤ 1.24

For the molecule C[C@@H]1CN(Cc2cc3c(c(C(F)(F)F)c2)CN(c2cccc([C@]4(Cc5nncn5C)C[C@@H](C#N)C4)c2)C3=O)CCC1(F)F [Compound 11] , what fold induction at 0.3 µM is on record?
1.24 to 1.39

For the molecule Cn1cnnc1C[C@]1(c2cccc(N3Cc4c(cc(CN5CCCCC(C)(F)C5)cc4C(F)(F)F)C3=O)c2)C[C@H](C#N)C1 (stereo partly shown) [Compound 26] , what fold induction at 0.3 µM is on record?
≤ 1.24

For the molecule Cn1cnnc1C[C@]1(c2cccc(N3Cc4c(cc(CN5CCO[C@H](C(F)(F)F)C5)cc4C(F)(F)F)C3=O)c2)C[C@H](C#N)C1 [Compound 16] , what fold induction at 0.3 µM is on record?
1.24 to 1.39
